# System: PC3 cells
# protocol: PC3 growth inhibition (Cell-titer glo, 72 hours)
# Type: cell-based
# test-conditions: Homo sapiens, PC-3, 72 h, read-out: Percent Viability, PC3 cells, compound concentration 1.667 μM, 72 hours

# compound, viability at 1.667 µM (%)
rows = [
    ("CCOc1cc(-c2ccc(F)cc2)nc2cc(C(=O)NCc3cc4[nH]ncc4s3)ccc12 [Compound I-80]", 2),
    ("CCOc1cc(-c2ccc(C)nc2)nc2cc(C(=O)NCCCc3cnn[nH]3)ccc12 [Compound I-110]", 2),
    ("CCCc1nc(-c2ccc(Cl)cc2)nc2cc(C(=O)NCc3ccc4nccn4c3)ccc12 [Compound I-8]", 1),
    ("CCOc1cc(-c2ccc(F)cc2)nc2cc(C(=O)NCCCc3n[nH]nc3C)ccc12 [Compound I-133]", 2),
    ("CCOc1cc(-c2ccc(F)cc2)nc2cc(C(=O)NCCCc3ncc[nH]3)ccc12 [Compound I-15]", 2),
    ("CCOc1cc(-c2cccnc2OC)nc2cc(C(=O)NCc3nc4ccncc4[nH]3)ccc12 [Compound I-192]", 3),
    ("CCOc1cc(-c2ccc(C)nc2)nc2cc(C(=O)NCCc3[nH]nnc3C)ccc12 [Compound I-77]", 1),
    ("CCOc1cc(-c2cccc(C(F)(F)F)c2)nc2cc(C(=O)NCCCc3nnc[nH]3)ccc12 [Compound I-215]", 1),
]

These data points were gathered from patent US10323018B2.
